Numbers sourced from ChEMBL document CHEMBL1150774.

system: Rattus norvegicus; assay: Hypotensive activity in Wistar rat assessed as decrease in heart rate at 0.1 mg/kg, iv after 30 mins; type: functional
Just a reminder that ties go to rule not met: only Activity strictly below -40 bpm counts as rule met.

{"columns": ["COMPOUND", "CLASS"],
 "data": [
  ["Cl.Clc1ccc2c(cnn2N=C2NCCN2)c1", "rule not met"],
  ["Cc1cccc2c1cnn2N=C1NCCN1.Cl", "rule met"],
  ["Cc1ccc2cnn(N=C3NCCN3)c2c1.Cl", "rule met"],
  ["COc1ccc2cnn(N=C3NCCN3)c2c1.Cl", "rule not met"],
  ["Cl.c1ccc(-c2nn(N=C3NCCN3)c3ccccc23)cc1", "rule not met"],
  ["Cl.c1ccc2c(c1)cnn2N=C1NCCN1 [MARSANIDINE HYDROCHLORIDE]", "rule met"]
]}

----------
experiment: Displacement of [3H][…] from alpha2 adrenoceptor in Sprague-Dawley rat brain
Under this convention, fulfilled denotes Ki strictly below 10 µM and not fulfilled denotes Ki at or above 10 µM.

{"columns": ["COMPOUND", "CLASS"],
 "data": [
  ["Cc1cccc2cnn(N=C3NCCN3)c12.Cl", "fulfilled"],
  ["COc1cccc2c1cnn2N=C1NCCN1.Cl", "not fulfilled"],
  ["Cc1ccc2c(cnn2N=C2NCCN2)c1.Cl", "fulfilled"],
  ["Cc1ccc2nn(N=C3NCCN3)cc2c1", "not fulfilled"],
  ["Clc1ccc2nn(N=C3NCCN3)cc2c1", "not fulfilled"],
  ["Cl.Clc1cccc2c1cnn2N=C1NCCN1", "fulfilled"],
  ["c1ccc2c(c1)nnn2N=C1NCCN1", "not fulfilled"],
  ["Cl.c1ccc2c(c1)cnn2N=C1NCCN1 [MARSANIDINE HYDROCHLORIDE]", "fulfilled"],
  ["Cl.Clc1ccc2c(cnn2N=C2NCCN2)c1", "fulfilled"],
  ["c1ccc2nn(N=C3NCCN3)cc2c1", "not fulfilled"],
  ["Cc1ccc2cnn(N=C3NCCN3)c2c1.Cl", "fulfilled"],
  ["Cc1cccc2nn(N=C3NCCN3)cc12", "not fulfilled"],
  ["Clc1cccc2nn(N=C3NCCN3)cc12", "fulfilled"]
]}

----------
experiment: Displacement of [3H]2BFI from imidazoline 2 receptor in Sprague-Dawley rat brain
pKi: −log10 of the molar value.

{"columns": ["QUERY SMILES", "SIGN", "pKi"],
 "data": [
  ["Cc1ccc2nn(N=C3NCCN3)cc2c1", "=", 4.94],
  ["Cl.Clc1ccc2c(cnn2N=C2NCCN2)c1", "=", 4.69],
  ["Cl.c1ccc(-c2nn(N=C3NCCN3)c3ccccc23)cc1", "=", 6.16],
  ["COc1ccc2cnn(N=C3NCCN3)c2c1.Cl", "=", 4.47],
  ["Cc1cccc2nn(N=C3NCCN3)cc12", "=", 4.45],
  ["Clc1ccc2nn(N=C3NCCN3)cc2c1", "=", 4.48],
  ["Cc1cc2ncn(N=C3NCCN3)c2cc1C", "<", 5.00],
  ["Cc1ccc2cnn(N=C3NCCN3)c2c1.Cl", "=", 4.72],
  ["Cc1ccc2c(cnn2N=C2NCCN2)c1.Cl", "=", 5.15],
  ["c1ccc2c(c1)ncn2N=C1NCCN1", "<", 5.00],
  ["Cl.Clc1cccc2c1cnn2N=C1NCCN1", "=", 4.96],
  ["c1ccc2c(c1)nnn2N=C1NCCN1", "<", 5.00],
  ["Cc1cccc2c1cnn2N=C1NCCN1.Cl", "=", 4.98],
  ["Clc1cccc2nn(N=C3NCCN3)cc12", "=", 4.88]
]}
